B1: CDC25A (parent)
chain: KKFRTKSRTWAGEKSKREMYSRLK

# Variants of: B1
# TEST_NAME: protein stability index of a GFP-peptide fusion (GPS, HEK-293T) (PSI 1-6); higher = more stable;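 further: lentivirally expressed fusions sorted by FACS into six bins by GFP to DsRed ratio, PSI derived from sequencing read proportions per bin multiplied by bin number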
# STUDY_CONDITIONS: c terminus: a fixed tail appended
Answer Condition not met if protein stability index is under 3, and Condition met if it is 3 or more.

# check: protein stability index of M19E is greater than or equal to 3
Condition met

Is protein stability index for Y20K at or above 3?
Condition met

Reported protein stability index at or above 3? L23C
Condition not met

Can S7H be said to have protein stability index at or above 3?
Condition met

Does the variant A11I have recorded protein stability index that is 3 or more?
Condition not met

Hi team, for R17I , is the recorded protein stability index at or above 3?
Condition met

Does the reported protein stability index for A11M fall at or above the 3 mark?
Condition not met
